- tgt: USP24 (UniProt Q9UPU5)
- Sequence (Q9UPU5 whole entry, the tested form may be a part): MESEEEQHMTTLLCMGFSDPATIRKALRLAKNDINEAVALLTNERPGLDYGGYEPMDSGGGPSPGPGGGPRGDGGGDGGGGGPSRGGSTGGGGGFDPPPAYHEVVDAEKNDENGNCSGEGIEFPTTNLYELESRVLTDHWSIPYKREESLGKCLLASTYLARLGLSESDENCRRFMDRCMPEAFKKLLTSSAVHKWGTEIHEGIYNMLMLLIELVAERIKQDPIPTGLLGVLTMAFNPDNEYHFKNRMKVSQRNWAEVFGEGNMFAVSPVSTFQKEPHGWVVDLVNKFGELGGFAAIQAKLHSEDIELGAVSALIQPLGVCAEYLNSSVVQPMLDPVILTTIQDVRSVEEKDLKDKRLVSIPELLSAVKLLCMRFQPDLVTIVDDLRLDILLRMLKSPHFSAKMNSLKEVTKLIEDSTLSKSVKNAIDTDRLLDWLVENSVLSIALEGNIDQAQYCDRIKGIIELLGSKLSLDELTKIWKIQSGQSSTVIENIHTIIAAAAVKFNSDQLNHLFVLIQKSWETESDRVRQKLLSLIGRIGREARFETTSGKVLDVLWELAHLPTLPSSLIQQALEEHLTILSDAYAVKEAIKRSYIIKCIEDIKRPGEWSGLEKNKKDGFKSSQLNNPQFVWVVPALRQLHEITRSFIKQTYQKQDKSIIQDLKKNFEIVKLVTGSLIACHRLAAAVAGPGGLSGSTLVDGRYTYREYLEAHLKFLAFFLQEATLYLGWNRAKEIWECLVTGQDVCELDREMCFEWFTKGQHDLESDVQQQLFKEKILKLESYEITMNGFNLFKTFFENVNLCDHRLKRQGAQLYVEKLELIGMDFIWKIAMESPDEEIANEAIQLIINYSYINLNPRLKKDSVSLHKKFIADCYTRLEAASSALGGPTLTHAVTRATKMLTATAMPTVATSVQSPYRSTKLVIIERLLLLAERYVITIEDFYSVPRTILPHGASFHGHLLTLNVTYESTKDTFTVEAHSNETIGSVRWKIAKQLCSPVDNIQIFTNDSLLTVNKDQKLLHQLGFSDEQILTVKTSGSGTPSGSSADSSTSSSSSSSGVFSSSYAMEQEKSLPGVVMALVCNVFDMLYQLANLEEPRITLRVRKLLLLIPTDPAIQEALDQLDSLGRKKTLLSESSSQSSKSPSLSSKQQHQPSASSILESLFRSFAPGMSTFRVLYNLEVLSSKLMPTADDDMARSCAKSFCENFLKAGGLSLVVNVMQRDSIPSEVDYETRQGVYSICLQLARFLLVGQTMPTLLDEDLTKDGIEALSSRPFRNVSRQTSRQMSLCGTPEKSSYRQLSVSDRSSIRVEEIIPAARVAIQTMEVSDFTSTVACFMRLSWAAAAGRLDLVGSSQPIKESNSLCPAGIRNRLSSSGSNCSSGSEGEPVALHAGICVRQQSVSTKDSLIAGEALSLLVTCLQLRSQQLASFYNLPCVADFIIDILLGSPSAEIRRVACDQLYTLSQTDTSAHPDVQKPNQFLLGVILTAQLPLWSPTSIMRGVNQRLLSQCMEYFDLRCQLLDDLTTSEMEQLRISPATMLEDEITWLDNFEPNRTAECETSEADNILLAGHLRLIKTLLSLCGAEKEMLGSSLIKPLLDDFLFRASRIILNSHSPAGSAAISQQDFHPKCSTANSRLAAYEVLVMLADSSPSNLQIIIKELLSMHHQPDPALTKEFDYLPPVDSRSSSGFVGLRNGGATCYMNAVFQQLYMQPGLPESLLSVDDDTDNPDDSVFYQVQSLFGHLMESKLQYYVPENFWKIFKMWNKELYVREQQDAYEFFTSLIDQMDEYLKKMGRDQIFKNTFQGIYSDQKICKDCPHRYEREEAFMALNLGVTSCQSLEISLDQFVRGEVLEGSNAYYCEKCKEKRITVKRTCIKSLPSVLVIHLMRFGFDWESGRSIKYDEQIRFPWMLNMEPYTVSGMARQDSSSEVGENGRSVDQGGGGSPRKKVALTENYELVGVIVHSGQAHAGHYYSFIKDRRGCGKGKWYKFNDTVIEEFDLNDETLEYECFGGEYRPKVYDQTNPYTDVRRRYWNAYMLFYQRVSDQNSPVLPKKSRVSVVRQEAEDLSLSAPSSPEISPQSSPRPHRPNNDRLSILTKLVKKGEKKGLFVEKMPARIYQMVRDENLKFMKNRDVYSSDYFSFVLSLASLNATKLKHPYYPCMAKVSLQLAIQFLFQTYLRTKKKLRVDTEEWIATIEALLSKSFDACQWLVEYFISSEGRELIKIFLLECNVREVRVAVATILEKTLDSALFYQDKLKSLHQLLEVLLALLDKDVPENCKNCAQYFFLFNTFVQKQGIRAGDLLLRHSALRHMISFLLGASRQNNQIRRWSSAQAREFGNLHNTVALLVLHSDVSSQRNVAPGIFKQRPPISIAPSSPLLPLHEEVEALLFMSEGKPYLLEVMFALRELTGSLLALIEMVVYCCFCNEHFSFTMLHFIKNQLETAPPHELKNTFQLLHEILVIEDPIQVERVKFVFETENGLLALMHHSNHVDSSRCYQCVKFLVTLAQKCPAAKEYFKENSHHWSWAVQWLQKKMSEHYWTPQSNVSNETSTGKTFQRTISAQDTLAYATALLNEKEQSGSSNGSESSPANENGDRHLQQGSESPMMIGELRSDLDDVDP
- assay.protocol: log2 ratio of Biotin-Ahx-Ub-VS probe labelling (fragment/DMSO); higher = less target engagement (more negative = stronger competition), active = hit call of the paper (q ≤ 0.05, log2 ratio ≤ -1)
- condition.info: compound concentration: 200 uM; treatment time: 3 h
attribute.measured: log2 ratio of Biotin-Ahx-Ub-VS probe labelling
Give only the figure.

Cc1ccc(CN(CCO)C(=O)CCl)cc1
-0.445
O=C(CCl)N1CCOC(CCc2ccccc2)C1 (configuration not stated)
-1.37
Cc1cc(NC(=O)CCl)n(-c2ccccc2)n1
-0.201
O=C(CCl)N1CCC[C@@H]1c1ccon1
-0.653
C[C@H]1CN(C(=O)CCl)CCN1C(=O)c1cnn(C)c1.Cl
-0.132
O=C(CCl)N(Cc1ccsc1)C1CC1
-0.704

// next item, log2 ratio of Biotin-Ahx-Ub-VS probe labelling requested
The compound listed as Cc1ccc(C)c(Oc2ccc(CNC(=O)CCl)cn2)c1.Cl has a reported log2 ratio of Biotin-Ahx-Ub-VS probe labelling of -0.83
